# Tested on: HCC 2998
# test.summary: Antitumor activity against human HCC2998 cells assessed as cell growth inhibition at 10 uM incubated for 48 hrs by sulforhodamine B assay
# Type: functional
# reported.conditions: read-out: GI
value.kind: inhibition of growth at 10 µM

Example results:
>  <compound.string>
Oc1ccccc1-c1nc2c3ccccc3c3ccccc3c2[nH]1

>  <measured.value>
< 10%

$$$$
>  <compound.string>
CCN(CC)c1ccc(-c2nc3c4ccccc4c4ccccc4c3o2)c(O)c1

>  <measured.value>
18.7%

$$$$
>  <compound.string>
O=Cc1ccc(-c2nc3c([nH]2)-c2cccc4cccc-3c24)cc1

>  <measured.value>
12.8%

$$$$

Hello, I would appreciate it if you could give inhibition of growth at 10 µM for each entry below.
1. CCN(CC)c1ccc(-c2nc3c4ccccc4c4ccccc4c3[nH]2)c(O)c1
2. O=C1c2ccccc2C(=O)c2c1ccc1[nH]c(-c3ccc(-c4nc5c6ccccc6c6ccccc6c5[nH]4)cc3)nc21
3. c1cc2ccc3ccc(-c4nc5c6ccccc6c6ccccc6c5[nH]4)c4ccc(c1)c2c34
4. O=C1NC(=O)/C(=C/c2ccc(-c3nc4c5ccccc5c5ccccc5c4[nH]3)cc2)S1

Result:
1: < 10%; 2: < 10%; 3: < 10%; 4: < 10%

Q: Given Oc1ccccc1-c1nc2c3ccccc3c3ccccc3c2o1 , respond with its inhibition of growth at 10 µM.
Result: < 10%
